Each recorded value in this set is attributed to patent US20150087577A1.

Could you please report measured IC50 (nM) Ca2+ assay (method 2) for the items listed next?
- TEST_TARGET: human CXCR4 (human, UniProt P61073 1-352)
- Sequence (P61073 whole entry): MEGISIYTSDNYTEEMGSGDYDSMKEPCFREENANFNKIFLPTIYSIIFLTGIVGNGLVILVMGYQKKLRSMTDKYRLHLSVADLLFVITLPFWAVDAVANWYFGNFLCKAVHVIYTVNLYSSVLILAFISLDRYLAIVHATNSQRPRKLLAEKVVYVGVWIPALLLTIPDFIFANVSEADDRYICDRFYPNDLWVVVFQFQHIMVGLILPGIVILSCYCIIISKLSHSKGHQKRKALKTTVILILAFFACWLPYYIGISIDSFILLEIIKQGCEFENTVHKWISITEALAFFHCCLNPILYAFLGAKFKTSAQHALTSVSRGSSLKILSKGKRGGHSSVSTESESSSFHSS
- TEST_PROTOCOL: cell-based or functional assay
Bridges are numbered along the chain shown (N, C = ends). [ ]: non-standard residue; d: D form. 2Nal = N[C@@H](Cc1ccc2ccccc2c1)C(=O)O; Cit = NC(=O)NCCC[C@H](N)C(=O)O; Dab = NCC[C@H](N)C(=O)O
One number for each entry, in nM.

Would you please look over these solved cases?
# BINDER, UNIT_ABBREVIATION, IC50 (nM) Ca2+ assay (method 2)
measured = [
    ("cyclo(YR[Cit]CRG[dP]RR[2Nal]CYQS[dP]P) (disulfide 4-11; SMILES N=C(N)NCCC[C@@H]1NC(=O)[C@@H]2CSSC[C@H](NC(=O)[C@H](Cc3ccc4ccccc4c3)NC(=O)[C@H](CCCNC(=N)N)NC(=O)[C@H](CCCNC(=N)N)NC(=O)[C@H]3CCCN3C(=O)CNC1=O)C(=O)N[C@@H](Cc1ccc(O)cc1)C(=O)N[C@@H](CCC(N)=O)C(=O)N[C@@H](CO)C(=O)N1CCC[C@@H]1C(=O)N1CCC[C@H]1C(=O)N[C@@H](Cc1ccc(O)cc1)C(=O)N[C@@H](CCCNC(=N)N)C(=O)N[C@@H](CCCNC(N)=O)C(=O)N2) [Example 87]", "nM", 3.5),
    ("cyclo(YR[Cit]CRG[dP]RR[2Nal]CYQA[dP]P) (disulfide 4-11; SMILES C[C@@H]1NC(=O)[C@H](CCC(N)=O)NC(=O)[C@H](Cc2ccc(O)cc2)NC(=O)[C@@H]2CSSC[C@H](NC(=O)[C@H](CCCNC(N)=O)NC(=O)[C@H](CCCNC(=N)N)NC(=O)[C@H](Cc3ccc(O)cc3)NC(=O)[C@@H]3CCCN3C(=O)[C@H]3CCCN3C1=O)C(=O)N[C@@H](CCCNC(=N)N)C(=O)NCC(=O)N1CCC[C@@H]1C(=O)N[C@@H](CCCNC(=N)N)C(=O)N[C@@H](CCCNC(=N)N)C(=O)N[C@@H](Cc1ccc3ccccc3c1)C(=O)N2) [Example 86]", "nM", 0.69),
    ("cyclo(YRTCRG[dP][Dab]R[2Nal]CYQK[dP]P) (disulfide 4-11; SMILES C[C@@H](O)[C@@H]1NC(=O)[C@H](CCCNC(=N)N)NC(=O)[C@H](Cc2ccc(O)cc2)NC(=O)[C@@H]2CCCN2C(=O)[C@H]2CCCN2C(=O)[C@H](CCCCN)NC(=O)[C@H](CCC(N)=O)NC(=O)[C@H](Cc2ccc(O)cc2)NC(=O)[C@@H]2CSSC[C@H](NC1=O)C(=O)N[C@@H](CCCNC(=N)N)C(=O)NCC(=O)N1CCC[C@@H]1C(=O)N[C@@H](CCN)C(=O)N[C@@H](CCCNC(=N)N)C(=O)N[C@@H](Cc1ccc3ccccc3c1)C(=O)N2) [Example 104]", "nM", 7.4),
]

Please examine the following record next.
Q: Return IC50 (nM) Ca2+ assay (method 2) (reported value) for this binder: cyclo(YR[Cit]CRG[dP]RRYCYQK[dQ]P) (disulfide 4-11; SMILES N=C(N)NCCC[C@@H]1NC(=O)[C@@H]2CSSC[C@H](NC(=O)[C@H](Cc3ccc(O)cc3)NC(=O)[C@H](CCCNC(=N)N)NC(=O)[C@H](CCCNC(=N)N)NC(=O)[C@H]3CCCN3C(=O)CNC1=O)C(=O)N[C@@H](Cc1ccc(O)cc1)C(=O)N[C@@H](CCC(N)=O)C(=O)N[C@@H](CCCCN)C(=O)N[C@H](CCC(N)=O)C(=O)N1CCC[C@H]1C(=O)N[C@@H](Cc1ccc(O)cc1)C(=O)N[C@@H](CCCNC(=N)N)C(=O)N[C@@H](CCCNC(N)=O)C(=O)N2) [Example 149]
Ans: 1
